Data origin, for the record: patent US10633376B2

assay: Solubility comparison study, saturated solutions measured by HPLC; format: physicochemical; settings: simulated gastric fluid (SGF), pH 1.8, simulated gastric fluid, thermodynamic from solid, SGF (pH=1.8), 24 h; read-out: Solubility in SGF 24 h
measured quantity: solubility at 24 h (µg/mL)
Give the quantity in µg/mL, number only.

Input: // solubility at 24 h lookup, key: O=C(Nc1nc2cccc(-c3ccc(CN4CCS(=O)(=O)CC4)cc3)n2n1)C1CC1 [Form CS2]
Output: 560

====

assay: Solubility comparison study, saturated solutions measured by HPLC; assay type: physicochemical; settings: pure water, water, thermodynamic from solid, pure water, 4 h; read-out: Solubility in water 4 h
measured quantity: solubility at 4 h (µg/mL)
Give the quantity in µg/mL, number only.

Input: // solubility at 4 h lookup, key: O=C(Nc1nc2cccc(-c3ccc(CN4CCS(=O)(=O)CC4)cc3)n2n1)C1CC1 [Form CS2]
Output: 40

====

assay: Solubility comparison study, saturated solutions measured by HPLC; assay type: physicochemical; conditions: fed state simulated intestinal fluid (FeSSIF), pH 5, fessif, thermodynamic from solid, FeSSIF pH=5.0, 4 h; read-out: Solubility in FeSSIF 4 h
measured quantity: solubility at 4 h

Input: // solubility at 4 h lookup, key: O=C(Nc1nc2cccc(-c3ccc(CN4CCS(=O)(=O)CC4)cc3)n2n1)C1CC1 [Form CS1]
Output: 200 µg/mL

====

test: Solubility comparison study, saturated solutions measured by HPLC; format: physicochemical; details: fed state simulated intestinal fluid (FeSSIF), pH 5, fessif, thermodynamic from solid, FeSSIF pH=5.0, 24 h; read-out: Solubility in FeSSIF 24 h
measured quantity: solubility at 24 h (mg/mL)
Give the quantity in mg/mL, number only.

Input: // solubility at 24 h lookup, key: O=C(Nc1nc2cccc(-c3ccc(CN4CCS(=O)(=O)CC4)cc3)n2n1)C1CC1 [Form CS1]
Output: 0.25
